Taken from the supplement of paper PMC10567573.

experiment: protein stability index of a GFP-peptide fusion (GPS, HEK-293T) (PSI 1-6); higher = more stable; conditions: treatment: DMSO; c terminus: a fixed tail appended;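 note: 24-mer peptide tiles fused after GFP, lentivirally expressed, FACS-sorted into six equal bins by GFP/DsRed ratio, decoded by Illumina sequencing, PSI is the read-weighted mean bin number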
In this scheme, each record receives a class according to its protein stability index; the ranges are one = under 3, two = from 3 up to 4, three = 4 and over

Here are 8 sequences together with their reported answers.
[
  {
    "sequence_text": "MEEFRRSYSRLCRESGAEPQEAVL [LRRC45]",
    "assigned_label": "two"
  },
  {
    "sequence_text": "LTASGDGTCALWDVESGQLLQSFH [GNB5]",
    "assigned_label": "one"
  },
  {
    "sequence_text": "LRSARGSRGGTRGWLPSHEGHLDD [RBMY1A1]",
    "assigned_label": "three"
  },
  {
    "sequence_text": "IDFIGQVHKTKEQFGQDGPISVHC [PTPRD]",
    "assigned_label": "one"
  },
  {
    "sequence_text": "VGKSEILESLQDGAAESPYSHLGG [RAB40A]",
    "assigned_label": "three"
  },
  {
    "sequence_text": "DITQEEYGEFYKSLTNDWEDHLAV [HSP90AB1]",
    "assigned_label": "two"
  },
  {
    "sequence_text": "NNWDKWMAKKHKKIRLRCQKGIPP [TBC1D10A]",
    "assigned_label": "one"
  },
  {
    "sequence_text": "TKVRKQEIIKVTEQLIEAISNGDF [CAMK2A]",
    "assigned_label": "one"
  }
]

Bin? EGVPSVFNPPPSRPLQVNTADHRI [FAF2]
three

Lab note: sort WNQILDPWVYILLRKAVLKNLYKL [PTGFR] into the matching protein stability index band.
one

Exercise: read the entry LSASQKALKEKEKASWSSLSMDEK [COX4I1] and state which class it falls under.
three

* * *

experiment: protein stability index of a GFP-peptide fusion (GPS, HEK-293T) (PSI 1-6); higher = more stable; conditions: treatment: DMSO; c terminus: a fixed tail appended
Property: protein stability index; scope: individual sequences
Please reply with the value in numeric form only.

Completed entries (count: 3):
[
  {
    "sequence_text": "GREDEDGWETRGDRKARKPLVEKK [HES6]",
    "measurement": 5.4
  },
  {
    "sequence_text": "FKLLDKNSSGDIGKKEIKPFKRFL [SMOC2]",
    "measurement": 2.54
  },
  {
    "sequence_text": "PETVRMVLSNMEKLFCIPVHGIRS [IMPA1]",
    "measurement": 2.65
  }
]

Find the recorded protein stability index belonging to GRRATLQRLVEALEENELTSLAED [TRADD] and report it.
4.54

What value of protein stability index has been reported for the following sequence? SLGQMKELGVIFYNCSCLVLDLQR [PLD5]
2.44

Item under review: LGKPDQKDLNENLAATQGLAHMIA [DLC1] . Reported protein stability index?
3.79

Any idea what its protein stability index is? The sequence is VLAEGDNASRSLYPDAEDPQLGLD [PSD2]
5.52

What does the data say about its protein stability index? Entry: GWFWVCPGGGDICMYRHALPPGFV [ZC3H15]
2.83

Return reported protein stability index; argument: NRQTFVNSAIRFLRKYSFDGLDLD [CHIT1]
1.99

Need protein stability index of AVNQKIDRESLCGASTSCLLPVQV [PCDHGC5] , thanks.
2.99

I'd like to know its protein stability index. The sequence in question is IPPYSRASLKGYQWLKDKILSEEG [KCNAB2]
2.64

GET /values?readout=protein stability index&item= LYAKMIQKLADLRSLNEEHSKQYR [VDR]
2.15

Could you share which protein stability index value was measured for ESIRRAQVSQVKGAARLALLQGAG [FCHSD1] ?
3.45

* * *

assay: protein stability index of a GFP-peptide fusion (GPS, HEK-293T) (PSI 1-6); higher = more stable; details: treatment: DMSO; c terminus: a fixed tail appended
Consider the following sequences and their measured protein stability index readings.
// print number alone

Example entries and their recorded answers appear below.
[
  {
    "sequence_text": "TTMNYPLWSQSYEDSSNQEEEGPS [MAGEA3]",
    "assay_endpoint": "protein stability index",
    "measurement": 5.43
  },
  {
    "sequence_text": "TSEKLGEWNEKVTQSDLYKKTQET [TPD52L2]",
    "assay_endpoint": "protein stability index",
    "measurement": 5.13
  },
  {
    "sequence_text": "QHRKINPKNREYDRFYVINYLVRL [ZNF277]",
    "assay_endpoint": "protein stability index",
    "measurement": 3.16
  },
  {
    "sequence_text": "KIGDTKRNTPIEALCENFPEEMAT [CSNK1G1]",
    "assay_endpoint": "protein stability index",
    "measurement": 5.14
  },
  {
    "sequence_text": "IVRLRTIGELLAPAAPFDKKCGRE [WSB1]",
    "assay_endpoint": "protein stability index",
    "measurement": 2.64
  }
]

Item under review: YVRDRADLNKDKPVIPAAALAGYT [ETS1] . Reported protein stability index?
2.44

Give its protein stability index value. Item: VTSTSQSPHSPDSSQSSLAQEEEE [DDIT3]
5.53

What value of measured protein stability index is listed for CASPVTGPGSKRDAHFCAVCSDYA [ESR2] ?
3.08

Data request, read-out protein stability index, for AHFSPFLYYQSQELPNGSVKEAPA [PDZK1]
3.45

* * *

experiment: protein stability index of a GFP-peptide fusion (GPS, HEK-293T) (PSI 1-6); higher = more stable; conditions: treatment: MLN4924 1 uM, 8 h; c terminus: a fixed tail appended
assay_endpoint: protein stability index

[
  {
    "sequence_text": "NCIHRDIKPENILITKQGIIKICD [CDKL4]",
    "measurement": 3.28
  }
]

Find the recorded protein stability index belonging to LKDEEAKVLQLTVRCEALTGELET [CCDC89] and report it.
3.71

Item LIVPFGLLYSEVTASSLVKINLQG [ADD1] has what recorded protein stability index?
2.88

Need protein stability index, item FCPLSLWRWQLYAAQSTKSPWNFL [CLPTM1]
2.9

I'd like to know its protein stability index. The sequence in question is YPASTSQDSFEAAGNSTSGSRAGA [KCNA3]
5.2

Data request, read-out protein stability index, for RPSEAQSVILRRYFLELTQSFIIP [DENND6A]
2.67

I would be grateful if you could share the reported protein stability index for VAEITKQLPPVVPVSKPGALRRSL [TCAP] .
5.2

Could you share which protein stability index value was measured for LDNTKKKMEIYQKENKDVIQKNKL [MNAT1] ?
4.34

# get_value(readout='protein stability index', item= LRSARGSRGGTRGWLPSHEGHLDD [RBMY1A1] )
4.78

Return reported protein stability index; argument: LFGGFTTDKQPLSDAWTYCISKNE [KLHDC2]
2.75

Report protein stability index for PALDSLAYEYEREGLYEQAFQLLR [TRADD] please.
2.9

Given the entry GVVDSEDLPLNISREMLQQSKILK [HSP90AB1] , report its measured protein stability index.
4.14

Need protein stability index of NGSISSAGNSSRNSSQSSSDGSCK [BTBD10] , thanks.
5.2

* * *

test: protein stability index of a GFP-peptide fusion (GPS, HEK-293T) (PSI 1-6); higher = more stable; details: treatment: DMSO; c terminus: a fixed tail appended
Listing: protein stability index of selected sequences
Would you mind answering with just the numeric figure?

So what's the measured protein stability index for this one? FPAMLFSSMLTGILWDTLLRLCAW [POMT2]
3.23

Consider the sequence ITTLRVPVLRPMDLMVEATPRRVF [PPP2R2B] and give its measured protein stability index.
2.52

Which protein stability index is reported for this sequence? LEVAMEEEGLADEEKKLRRSQHAR [STK38L]
5.43

* * *

Each entry below carries its reported protein stability index.
assay: protein stability index of a GFP-peptide fusion (GPS, HEK-293T) (PSI 1-6); higher = more stable; conditions: treatment: MLN4924 1 uM, 8 h; c terminus: a fixed tail appended

Which measured protein stability index value corresponds to YFEGAPFPHPLWLRDTYKLWVPQP [PWWP2B] ?
2.18

Name the recorded protein stability index for ERTRKPYNNDIDYYAKRNALRAAE [GALNT9] .
4.26

Dear colleague, I am looking for the recorded protein stability index of the following sequence: DSHLGGNARGMGIRSPRPASVATW [CTBP1-DT]
3.63

May I ask what protein stability index has been recorded for LRPQVVTDDDGQAPEAKDGSSFSG [APMAP] ?
5.31

Request the reported protein stability index associated with LTASGDGTCALWDVESGQLLQSFH [GNB5]
2.76

Which protein stability index value belongs to TISFICRELDAISTNEEEKEENEA [PRIM1] ?
5.16

# input sequence: FTAALEHCRENAHDKIRPISSIGQ [SPACA9] ; wanted: its protein stability index
3.41
